Here, each record is paired with measured t½ data.
Target: T1, human IL-33 (R&D Systems, #3625-IL-010/CF) (human, UniProt O95760 112-270)
T1 construct: Commercial recombinant protein; also called hIL-33; interleukin-33
T1 sequence (looked up): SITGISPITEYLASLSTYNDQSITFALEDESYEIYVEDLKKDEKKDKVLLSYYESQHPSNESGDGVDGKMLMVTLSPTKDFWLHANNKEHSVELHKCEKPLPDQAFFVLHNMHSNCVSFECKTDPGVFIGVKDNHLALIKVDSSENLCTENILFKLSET
Assay: SPR 37C, pH6.0 chase, mAb captured
// return numeric value only (unit: min, not printed)

Quick note, t½ for H4H9633P (antibody, human IgG4, V domains shown, Human IgG4 Fc (H4H)) VH: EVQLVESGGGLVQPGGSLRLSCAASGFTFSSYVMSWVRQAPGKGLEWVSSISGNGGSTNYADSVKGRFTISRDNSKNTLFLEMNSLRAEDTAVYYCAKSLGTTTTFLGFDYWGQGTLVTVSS VL: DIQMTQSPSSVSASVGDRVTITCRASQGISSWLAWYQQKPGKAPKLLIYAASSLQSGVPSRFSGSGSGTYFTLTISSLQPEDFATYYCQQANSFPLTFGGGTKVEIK landed at 5

Quick note, t½ for H4H9663P (antibody, human IgG4, V domains shown, Human IgG4 Fc (H4H)) VH: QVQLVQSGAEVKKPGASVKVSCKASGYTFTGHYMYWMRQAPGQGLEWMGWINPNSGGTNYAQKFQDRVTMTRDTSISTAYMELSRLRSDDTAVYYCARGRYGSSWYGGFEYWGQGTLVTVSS VL: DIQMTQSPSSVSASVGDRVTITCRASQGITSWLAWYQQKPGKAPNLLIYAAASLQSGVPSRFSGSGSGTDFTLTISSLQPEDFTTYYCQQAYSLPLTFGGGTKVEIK landed at 3

Quick note, t½ for H4H9665P (antibody, human IgG4, V domains shown, Human IgG4 Fc (H4H)) VH: EVQLVESGGGLVQPGGSLRLSCAASGFTFSNYAMTWVRQAPGKGLEWVSTISGSGDNTYYADSVQGRFTISRGHSKNTLYLQMNSLRAEDTAVYYCAKPTYSRSWYGAFDFWGQGTMVTVSS VL: DIQMTQSPSSVSASVGDRVTITCRASQGISSWLAWYQQKPGKAPQLLIYAASRLQSGVPSRFWGSGSGTDFTLTISSLQPEDFATYYCQQANNFPFTFGPGTKVDIK landed at 1

The measurements presented in this section are drawn from patent US20160362487A1.
